System: SW-620 colon
Experiment: NCI tumour cell line growth inhibition, 384-well format
readoutName: GI50

[
  {
    "compound": "CCNC(=O)c1noc(-c2cc(C(C)C)c(O)cc2O)c1-c1ccc(CN2CCOCC2)cc1",
    "system": "SW-620 colon",
    "GI50": "< 10 nM"
  },
  {
    "compound": "CCc1c2c(nc3ccc(OC(=O)N4CCC(N5CCCCC5)CC4)cc13)-c1cc3c(c(=O)n1C2)COC(=O)[C@]3(O)CC",
    "system": "SW-620 colon",
    "GI50": "851 nM"
  },
  {
    "compound": "Nc1ccc(/C=C/C(=O)NCc2cc3cc(-c4ccc(C(=O)N5CCC(F)(F)CC5)cc4)cc(-c4ccc(F)cc4)c3o2)cn1",
    "system": "SW-620 colon",
    "GI50": "23.9 nM"
  }
]

Fill blank: measured GI50 of the compound CCOC(=O)CCC(NC(=O)C(Cc1ccc(N(CCCl)CCCl)cc1)NC=O)C(=O)OCC (centres undefined) is ____. 2860 nM
